Would you mind telling me the reported Kd of each entry?
ASSAYED SYSTEM: RSV prefusion F (preF), DS-Cav1 (respiratory syncytial virus, UniProt P03420 26-513)
METHOD: BLI, IgG on sensor, 100 nM antigen

Incoming: Quick one: Kd of ADI-41378 (antibody, V domains shown, IgG1) VH: EVQLVESGPGLVKPSGTLSLTCAVSGDSISSSNWWSWVRQPPGKGLEWIGEVSHSGNTDYNPSLKSRVTISVDKSKNQFSLKLSSVTAADTAVYYCARPSPCSGGSCYWFFDLWGRGTLVTVSS VL: DIRLTQSPSSLSASVGDRVTITCRASQTINAYLNWYQQRPGKAPNLLIYAASSLQSGVPSRFSGSGSGTDFTLTISSLQPEDFATYYCQQSYKTAYTFGQGTKVEIK ?
Outgoing: 2.98 nM

Incoming: Also, ADI-41366 (antibody, V domains shown, IgG1) VH: QVQLVQSGAEVKKPGESLKISCKASGYSSTTYWIGWVRQISGKGLEWMGIIYPGDSDTRYSPSFQGQVTISADRSTKTAYLQWSSLKASDTAMYYCGTSGFGVATPFDYWGQGTLVTVSS VL: NFMLTQPHSVSESPGKTVTISCTRTSGSIAGNYVHWYQQRPGSAPTTVIYEDNQRPSGVPDRFSGSIDRSSNSASLTISGLKTEDEADYYCQSYASGIHGVFGGGTKVTVL please.
Outgoing: 1.79 nM

Incoming: And the next one, ADI-41392 (antibody, V domains shown, IgG1) VH: EVQLVESGGGVVQPGGSLRLSCAASGFEFRDYAMHWVRQAPGKGLEWVALISYDGSKIHYADSVQGRFSISRDNSKNSLYLQMNSLRSEDSAKYYCVQDHWLVPAFWGQGAQVTVSS VL: QPVLTQPASVSGSPGQWITISCTGTSSDIGYYDYVSWYQQYPGKAPKLIIYEVSHRPSGVSNRFSGSKSGNTASLSISGLQAEDEADYYCSSYTTSNAGVFGTGTKLTVL ?
Outgoing: 0.329 nM

Incoming: And ADI-41371 (antibody, V domains shown, IgG1; also called Ab 668) VH: QVQLQESGPRLVKPSQTLSLTCTVSGGSITTGEHYWSWIRQSPGRGLEWIGYISYSGSTYYNPSLKSRVTISVDTSKTRISLNLRSVTAADSAVYYCARDQEDSDYIWGSSRVFDIWGQGTMVTVSS VL: ETTLTQSPGTLSLSPGERATLSCRASQNVGNNYLAWYQQKPGQAPRVLIQDASTRATGIPDRFSGSGSGTDFTLTISRLEPEDFAVYHCQQYGSAPWTFGQGTKVEIK ?
Outgoing: 2.96 nM
